All figures here come from PubChem BioAssay (NCI).

- System: HS 578T breast
- Assay Procedure: NCI-60 one-dose screen, 48 h
- Particulars: 10 µM
This is part of a sample that, as a whole, favours compounds with a hit. Of some 83,000 tested, about 20% had one in any assay. Active and inactive are the calls of the source. The calls were made as follows: active = growth percent below 10; inactive = the rest.
Reply using exactly one outcome from t (active), f (inactive)

Incoming: Fill in: this test's call for `CN(C)CCOc1ccccc1NC1=C(Cl)C(=O)C(Nc2ccccc2OCCN(C)C)=C(Cl)C1=O` is ___
Outgoing: f

Incoming: Can you check O=c1[nH]c(=O)n(C2C[C@H](O)[C@@H](CO)O2)cc1C(F)(F)F (stereo partly drawn) next?
Outgoing: f

Incoming: Check `NNC(=O)Oc1c(Cl)cc(Cl)cc1[N+](=O)[O-]` too.
Outgoing: f

Incoming: Query `CCOC(=O)C(C)(c1ccccc1)c1ccccc1` next
Outgoing: f

Incoming: Entry `COc1ccc2nc3cc(Cl)ccc3c(Nc3cc(CN4CCCC4)c(O)c(CN4CCCC4)c3)c2n1` please
Outgoing: f

Incoming: `O=C1/C=C/[C@@H](O)[C@@H]2C[C@@H](O)C[C@H]2/C=C/CCC[C@H](CCc2ccc(NC(=S)Nc3ccc4c(c3)C(=O)OC43c4ccc(O)cc4Oc4cc(O)ccc43)cc2)O1` , same question.
Outgoing: f

Incoming: And what about the compound `COc1ccc(-c2n[nH]nc2-c2cc(OC)c3c(c2OC)OCO3)cc1` ?
Outgoing: t

Incoming: Try this compound next: `N#Cc1c(N)nc(-c2cc(F)cc(C(F)(F)F)c2)nc1-c1ccccc1F`
Outgoing: f

Incoming: Further, for `CNC(=O)c1cn2c3c(c(N4CCN(C)CC4)c(F)cc3c1=O)OC[C@@H]2C` ?
Outgoing: f

Incoming: Also, `O=C1/C(=C/c2cccc(F)c2)Cc2ccccc21` please.
Outgoing: f

Incoming: Repeat for the following compound: `Nc1ccc(CC[C@H]2CCC/C=C/[C@@H]3C[C@H](O)C[C@H]3[C@H](O)/C=C/C(=O)O2)cc1`
Outgoing: f

Incoming: Request: `COc1ccc(-c2nn(-c3cccc(Cl)c3)cc2-c2cc(-c3ccccc3)[nH]c(=O)c2C#N)cc1`
Outgoing: f

Incoming: Again, but for `CN(C)c1nc(N)c2nccnc2n1`
Outgoing: f

Incoming: Lookup `O=C(Nc1ccc(OCc2nnc(-c3ccc(Cl)cc3)o2)c(F)c1)Nc1ccc(Cl)c(C(F)(F)F)c1`
Outgoing: f

Incoming: `O=C(CCl)Nc1ccc(Cc2ccc(NC(=O)CCl)cc2)cc1` , same question.
Outgoing: f

Incoming: // same read-out, input: `O=C(Nc1nc(-c2ccccc2)nc2c1sc(=S)n2-c1ccccc1)C(F)(F)F`
Outgoing: f

Incoming: What about `CN(C)CCOc1cccc(-c2nc3sccn3c2-c2ccnc(S(C)(=O)=O)n2)c1` ?
Outgoing: f

Incoming: Now give it for CC[C@@H](C(=O)[C@H](C)[C@H](O)[C@@H](C)[C@H]1O[C@H]([C@@H](CC)C(=O)N(CC)CC)CC[C@H]1C)C1O[C@]2(C=C[C@@H](O)[C@]3(CC[C@@](C)([C@H]4CC[C@](O)(CC)[C@H](C)O4)O3)O2)[C@H](C)C[C@@H]1C (stereo partly drawn) too.
Outgoing: f

Incoming: What do you get for `Clc1ccc(Cc2ccncc2)cc1` ?
Outgoing: f

Incoming: Then what about the compound `CCOC(=O)c1cocc1C(=O)O` ?
Outgoing: f

Incoming: One more compound: COc1ccc(/C=C2\CCCC3=C2NC(N)=NC3c2ccc(OC)cc2)cc1 (stereo not drawn)
Outgoing: f

Incoming: What about this compound? `COc1ccc([C@H]2[C@H](C(=O)Nc3cccnc3)c3ccccc3C(=O)N2c2ccccc2)cc1`
Outgoing: f

Incoming: Same lookup for `O=C1/C(=C/c2ccc3c(c2)OCO3)SC(=S)N1C1c2ccccc2Oc2ccccc21` , please.
Outgoing: f

Incoming: Param item: COc1ccc(C2CC(c3cc(OC)c(OC)c(OC)c3)=NN2)cc1 (stereo not drawn)
Outgoing: f

Incoming: Also check `Cc1ccc(NCCNCC(C)(C)O)c2c(=O)c3ccc(Cl)cc3sc12`
Outgoing: f

Incoming: And `COc1cc2c3c(n(C4CCNCC4)c(=O)c2cc1OC)-c1cc2c(cc1C3=O)OCO2` ?
Outgoing: t

Incoming: Proceed to `Cc1nc2n(c(=O)c1CCN1CCC(c3noc4cc(F)ccc34)CC1)CCC[C@@H]2O`
Outgoing: f

Incoming: Next: `COc1cc2cc(Oc3ccc(NC(=O)Nc4ccc(Cl)c(C(F)(F)F)c4)cc3)c(C)nc2cc1OC`
Outgoing: t

Incoming: What do you get for Cc1ccc(C2NC(=S)N3C(c4ccc(C)cc4)NC(=S)N23)cc1 (stereo not drawn) ?
Outgoing: f

Incoming: Same read-out for CC(=O)O[C@@]12CO[C@@H]1C[C@H](O)[C@@]1(C)C(=O)[C@H](O)C3=C(C)[C@@H](OC(=O)[C@H](O)[C@@H](NC(=O)OC(C)(C)C)c4ccccc4)C[C@@](O)([C@@H](OC(=O)c4ccccc4)C12)C3(C)C (stereo partly drawn) ?
Outgoing: f

Incoming: Same again, this time with `CC(C)(O)CCl`
Outgoing: f

Incoming: How about `Cc1cc(C)nc(NS(=O)(=O)c2ccc(Nc3nc4nc(NCc5ccccc5)nc(-c5ccc(O)cc5)c4c(=O)[nH]3)cc2)n1` ?
Outgoing: f

Incoming: Query `Cc1c(Cl)cccc1NC(=O)CN1CCOCC1` next
Outgoing: f

Incoming: // repeat for NC1=NC(c2ccc(Cl)cc2)C2=C(N1)/C(=C/c1ccc(Cl)cc1)CCC2 (stereo not drawn) and report
Outgoing: f

Incoming: Also, `Nc1ccc(/C=N/Nc2ccnc3c(O)cccc23)c2cccnc12` please.
Outgoing: f

Incoming: Queued: CCC(=O)OC1CCC2C3CCC(=O)OC3C(C)(CCC(=O)O)CC12C (stereo not drawn)
Outgoing: t

Incoming: Also `Cc1c2c[n+](C(C)C)ccc2c(C)c2c1[nH]c1ccccc12` , if possible.
Outgoing: f

Incoming: Next record, please: `COc1cc2c3c(n(C4CCN(C)CC4)c(=O)c2cc1OC)-c1cc2c(cc1C3=O)OCO2`
Outgoing: f

====

- Test system: RPMI-8226 leukemia
- Assay Procedure: NCI-60 one-dose screen, 48 h (100 = growth as untreated, 0 = no growth, -100 = all killed)
- Particulars: 10 µM
About 83,000 compounds went through this panel and 20% of them were active in at least one assay; those are over-represented in the sample as a whole.
Just a reminder that ties go to condition not met: only growth strictly below 70% counts as condition met.

Incoming: Strictly below 70%: is that where growth of C[C@]12CCC3c4ccc(O)cc4C[C@@H](CCCCCCCCCS(=O)CCCC(F)(F)C(F)(F)F)C3C1CC[C@@H]2O (some centres not stated) sits?
Outgoing: condition met

Incoming: Proceed to `NC1=CC(=O)C(=O)c2cccnc21`
Outgoing: condition not met

Incoming: Ok, now `COc1ccc(-c2n[nH]nc2-c2cc(OC)c3c(c2OC)OCO3)cc1`
Outgoing: condition met

Incoming: Moving on to O=C(Nc1cc(Cl)cc2c1-c1ccc(Cl)cc1C2O)C(Cl)Cl (configuration not stated)
Outgoing: condition met

Incoming: Next entry: `Cc1cc(CSc2ccccc2C(=O)N2CC=C(c3ccccc3)CC2)on1`
Outgoing: condition not met

Incoming: Repeat for the following compound: `COc1cc2cc(Oc3ccc(NC(=O)Nc4ccc(C(F)(F)F)cc4)cc3)c(C)nc2cc1OC`
Outgoing: condition met

Incoming: Request: `CCCc1cn(CC(=O)Nc2nc3ccccc3s2)nn1`
Outgoing: condition not met

Incoming: Please give the result for `O=C1/C=C/[C@@H](O)[C@@H]2C[C@@H](O)C[C@H]2/C=C/CCC[C@@H](C(F)(F)F)O1` too.
Outgoing: condition not met

Incoming: Try the compound `O=C(CC(CC(=O)c1ccccc1)c1ccccc1O)c1ccccc1`
Outgoing: condition not met

Incoming: Another compound: `Cc1ccc(/C=C2/C(=O)N(C)c3ccc(S(=O)(=O)Nc4ccc(C(C)(C)C)cc4)cc32)s1`
Outgoing: condition met

Incoming: Follow-up item: `CS(=O)(=O)c1nccc(-c2c(-c3cccc(OCc4ccccc4)c3)nc3sccn23)n1`
Outgoing: condition not met

Incoming: Further, for Cc1ccc(NCCN(C)CC(C)O)c2c(=O)c3ccccc3sc12 (configuration not stated) ?
Outgoing: condition met

Incoming: How about COC(=O)C1(O)NC(=C(C#N)C#N)C(C#N)=C1C(=O)c1ccc(OC)c(OC)c1 (configuration not stated) ?
Outgoing: condition not met

Incoming: Follow-up entry: `Nc1cc(-c2ccncc2)c[nH]c1=O`
Outgoing: condition not met

Incoming: Also `CCc1c2c(nc3ccc(OC(=O)N4CCC(N5CCCCC5)CC4)cc13)-c1cc3c(c(=O)n1C2)COC(=O)[C@]3(O)CC` ?
Outgoing: condition met

Incoming: Also need `O=C(Nc1ccc(NS(=O)(=O)c2ccc(F)cc2)cc1)C12CC3CC(CC(C3)C1)C2` , thanks.
Outgoing: condition not met

Incoming: What do you have for `c1ccc(/C(=N\Nc2ccc3ccccc3n2)c2ccccn2)cc1` ?
Outgoing: condition met

Incoming: # repeat for `Cc1ccc(S(=O)(=O)N(C)CCCCCC(=O)O)cc1`
Outgoing: condition not met

Incoming: Check `O=c1c(Br)ccc(Br)cc1Br` too.
Outgoing: condition met

Incoming: And for `O=C(CCl)Oc1ccc(OC(=O)CCl)cc1` ?
Outgoing: condition met

Incoming: // repeat for `COc1ccc(/C=C2/SC(=S)NC2=O)c(OC)c1OC` and report
Outgoing: condition not met
